Target: Kappa-type opioid receptor (Mus musculus) (UniProt P33534)
Sequence (P33534 whole entry): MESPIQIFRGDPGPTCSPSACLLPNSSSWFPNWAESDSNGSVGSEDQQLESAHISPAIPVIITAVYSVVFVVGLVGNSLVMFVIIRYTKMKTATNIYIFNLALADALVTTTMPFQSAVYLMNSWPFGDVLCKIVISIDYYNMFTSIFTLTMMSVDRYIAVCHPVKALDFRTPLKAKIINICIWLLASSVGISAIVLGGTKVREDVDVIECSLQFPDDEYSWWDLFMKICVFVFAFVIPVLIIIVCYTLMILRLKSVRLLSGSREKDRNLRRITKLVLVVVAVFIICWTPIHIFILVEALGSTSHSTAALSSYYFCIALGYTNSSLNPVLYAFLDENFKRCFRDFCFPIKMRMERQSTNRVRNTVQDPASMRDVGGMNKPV
Test: Equilibrium constant, ratio of IC50 for kappa opioid receptor in ddy mouse vas deferens in presence of 10 nM nor-BNI to IC50 for kappa opioid receptor in ddy mouse vas deferens
Measured Ke values are reported for all entries that follow.
Provide only the numeric value, understood in nM.

Q) Could you share which Ke value was measured for CN(C(=O)/C=C/c1cccc(F)c1)[C@@H]1CC[C@@]2(O)[C@H]3Cc4ccc(O)c5c4[C@@]2(CCN3CC2CC2)[C@H]1O5 ?
A) 2.37

Q) Could you share which Ke value was measured for CN(C(=O)Cc1ccc(Cl)c(Cl)c1)[C@H]1CC[C@@]2(O)[C@H]3Cc4ccc(O)c5c4[C@@]2(CCN3CC2CC2)[C@H]1O5 ?
A) 0.55

Q) Could you share which Ke value was measured for CN(C(=O)/C=C/c1ccco1)[C@@H]1CC[C@@]2(O)[C@H]3Cc4ccc(O)c5c4[C@@]2(CCN3CC2CC2)[C@H]1O5 ?
A) 0.2

Q) Could you share which Ke value was measured for CN(C(=O)CCc1ccccc1)[C@@H]1CC[C@@]2(O)[C@H]3Cc4ccc(O)c5c4[C@@]2(CCN3CC2CC2)[C@H]1O5 ?
A) 0.008

Q) Could you share which Ke value was measured for CN(C(=O)/C=C/C1CCCCC1)[C@@H]1CC[C@@]2(O)[C@H]3Cc4ccc(O)c5c4[C@@]2(CCN3CC2CC2)[C@H]1O5 ?
A) 1.08

Continuing:
Q) Could you share which Ke value was measured for O=C(/C=C/c1ccoc1)N[C@@H]1CC[C@@]2(O)[C@H]3Cc4ccc(O)c5c4[C@@]2(CCN3CC2CC2)[C@H]1O5 ?
A) 0.44

###

Target: Delta-type opioid receptor (Mus musculus) (UniProt P32300)
Sequence (P32300 whole entry): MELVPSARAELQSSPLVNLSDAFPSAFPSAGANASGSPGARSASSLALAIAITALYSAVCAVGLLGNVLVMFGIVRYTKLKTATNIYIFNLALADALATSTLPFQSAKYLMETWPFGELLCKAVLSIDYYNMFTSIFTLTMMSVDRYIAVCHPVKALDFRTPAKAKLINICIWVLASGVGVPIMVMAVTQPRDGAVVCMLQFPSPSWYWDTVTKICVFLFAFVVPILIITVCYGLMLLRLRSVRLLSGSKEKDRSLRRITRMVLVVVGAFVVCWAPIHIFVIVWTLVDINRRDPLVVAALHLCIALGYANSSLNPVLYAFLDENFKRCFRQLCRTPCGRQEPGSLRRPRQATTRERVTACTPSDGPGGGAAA
Assay: Equilibrium constant, ratio of IC50 for delta opioid receptor in ddy mouse vas deferens in presence of 10 nM Naltrindole to IC50 for delta opioid receptor in ddy mouse vas deferens
READOUT: Ke (nM)
Provide only the numeric value, understood in nM.

Q) Could you share which Ke value was measured for CCCCCC(=O)N[C@@H]1CC[C@@]2(O)[C@H]3Cc4ccc(O)c5c4[C@@]2(CCN3CC2CC2)[C@H]1O5 ?
A) 2.3

Q) Could you share which Ke value was measured for CN(C(=O)Cc1ccc(Cl)c(Cl)c1)[C@@H]1CC[C@@]2(O)[C@H]3Cc4ccc(O)c5c4[C@@]2(CCN3CC2CC2)[C@H]1O5 ?
A) 1110

Q) Could you share which Ke value was measured for CN(C(=O)/C=C/c1ccoc1)[C@@H]1CC[C@@]2(O)[C@H]3Cc4cccc5c4[C@@]2(CCN3CC2CC2)[C@H]1O5 ?
A) 8.4

Continuing:
Q) Could you share which Ke value was measured for CN(C(=O)/C=C/c1cccc([N+](=O)[O-])c1)[C@@H]1CC[C@@]2(O)[C@H]3Cc4ccc(O)c5c4[C@@]2(CCN3CC2CC2)[C@H]1O5 ?
A) 89

Q) Could you share which Ke value was measured for CN(C(=O)/C=C/c1cccc(C(F)(F)F)c1)[C@@H]1CC[C@@]2(O)[C@H]3Cc4ccc(O)c5c4[C@@]2(CCN3CC2CC2)[C@H]1O5 ?
A) 291

Q) Could you share which Ke value was measured for CN(C(=O)/C=C/c1cccc(F)c1)[C@@H]1CC[C@@]2(O)[C@H]3Cc4ccc(O)c5c4[C@@]2(CCN3CC2CC2)[C@H]1O5 ?
A) 276

###

Biological target: Delta-type opioid receptor (Mus musculus) (UniProt P32300)
Experiment: Equilibrium constant, ratio of IC50 for delta opioid receptor in ddy mouse vas deferens in presence of 10 nM Naltrindole to IC50 for delta opioid receptor in ddy mouse vas deferens
Measured Ke values are reported for all entries that follow.
Provide only the numeric value, understood in nM.

Worked examples, 5 molecules total:
Q) Could you share which Ke value was measured for CN(C(=O)/C=C/C1CCCCC1)[C@@H]1CC[C@@]2(O)[C@H]3Cc4ccc(O)c5c4[C@@]2(CCN3CC2CC2)[C@H]1O5 ?
A) 143

Q) Could you share which Ke value was measured for CN(C(=O)Cc1ccc(Cl)c(Cl)c1)[C@H]1CC[C@@]2(O)[C@H]3Cc4ccc(O)c5c4[C@@]2(CCN3CC2CC2)[C@H]1O5 ?
A) 17.1

Q) Could you share which Ke value was measured for COc1cccc(/C=C/C(=O)N(C)[C@@H]2CC[C@@]3(O)[C@H]4Cc5ccc(O)c6c5[C@@]3(CCN4CC3CC3)[C@H]2O6)c1 ?
A) 96.4

Q) Could you share which Ke value was measured for O=C(/C=C/c1ccoc1)N[C@@H]1CC[C@@]2(O)[C@H]3Cc4ccc(O)c5c4[C@@]2(CCN3CC2CC2)[C@H]1O5 ?
A) 8100

Q) Could you share which Ke value was measured for Cc1cccc(/C=C/C(=O)N(C)[C@@H]2CC[C@@]3(O)[C@H]4Cc5ccc(O)c6c5[C@@]3(CCN4CC3CC3)[C@H]2O6)c1 ?
A) 64.5

Continuing:
Q) Could you share which Ke value was measured for CN(C(=O)/C=C/c1ccccc1)[C@@H]1CC[C@@]2(O)[C@H]3Cc4ccc(O)c5c4[C@@]2(CCN3CC2CC2)[C@H]1O5 ?
A) 263

Q) Could you share which Ke value was measured for CN(C(=O)/C=C/c1cccs1)[C@@H]1CC[C@@]2(O)[C@H]3Cc4ccc(O)c5c4[C@@]2(CCN3CC2CC2)[C@H]1O5 ?
A) 89.6

Q) Could you share which Ke value was measured for CN(C(=O)/C=C/c1ccoc1)[C@@H]1CC[C@H]2[C@H]3Cc4ccc(O)c5c4[C@@]2(CCN3CC2CC2)[C@H]1O5 ?
A) 1.31

Q) Could you share which Ke value was measured for CN(C(=O)/C=C/c1ccccc1)[C@H]1CC[C@@]2(O)[C@H]3Cc4ccc(O)c5c4[C@@]2(CCN3CC2CC2)[C@H]1O5 ?
A) 41.6

###

Measured Ke values are reported for all entries that follow.
Biological target: Delta-type opioid receptor (Mus musculus) (UniProt P32300)
Test: Equilibrium constant, ratio of IC50 for delta opioid receptor in ddy mouse vas deferens in presence of 10 nM Naltrindole to IC50 for delta opioid receptor in ddy mouse vas deferens
Provide only the numeric value, understood in nM.

Q) What is its Ke for Delta-type opioid receptor (Mus musculus) (UniProt P32300)? Entry: CN(C(=O)/C=C/c1ccc(C(F)(F)F)cc1)[C@@H]1CC[C@@]2(O)[C@H]3Cc4ccc(O)c5c4[C@@]2(CCN3CC2CC2)[C@H]1O5
A) 78

Continuing:
Q) What is its Ke for Delta-type opioid receptor (Mus musculus) (UniProt P32300)? Entry: CN1CC[C@]23c4c5ccc(O)c4O[C@H]2[C@H](N(C)C(=O)/C=C/c2ccoc2)CC[C@@]3(O)[C@H]1C5
A) 33

Q) What is its Ke for Delta-type opioid receptor (Mus musculus) (UniProt P32300)? Entry: CCCCCCO[C@@H]1CC[C@@]2(O)[C@H]3Cc4ccc(O)c5c4[C@@]2(CCN3CC2CC2)[C@H]1O5
A) 1.5

Q) What is its Ke for Delta-type opioid receptor (Mus musculus) (UniProt P32300)? Entry: CN(C(=O)CCc1ccccc1)[C@@H]1CC[C@@]2(O)[C@H]3Cc4ccc(O)c5c4[C@@]2(CCN3CC2CC2)[C@H]1O5
A) 188

###

Target: UniProt P33534
Test: Equilibrium constant, ratio of IC50 for kappa opioid receptor in ddy mouse vas deferens in presence of 10 nM nor-BNI to IC50 for kappa opioid receptor in ddy mouse vas deferens
Measured Ke values are reported for all entries that follow.
Provide only the numeric value, understood in nM.

Worked examples, 5 molecules total:
Q) What is its Ke for UniProt P33534? Entry: CN(C(=O)/C=C/c1ccccc1)[C@H]1CC[C@@]2(O)[C@H]3Cc4ccc(O)c5c4[C@@]2(CCN3CC2CC2)[C@H]1O5
A) 0.16

Q) What is its Ke for UniProt P33534? Entry: CN(C(=O)/C=C/c1ccc(C(F)(F)F)cc1)[C@@H]1CC[C@@]2(O)[C@H]3Cc4ccc(O)c5c4[C@@]2(CCN3CC2CC2)[C@H]1O5
A) 0.2

Q) What is its Ke for UniProt P33534? Entry: CN(C(=O)/C=C/c1ccoc1)[C@@H]1CC[C@@]2(O)[C@H]3Cc4cccc5c4[C@@]2(CCN3CC2CC2)[C@H]1O5
A) 0.07

Q) What is its Ke for UniProt P33534? Entry: CCC/C=C/C(=O)N(C)[C@@H]1CC[C@@]2(O)[C@H]3Cc4ccc(O)c5c4[C@@]2(CCN3CC2CC2)[C@H]1O5
A) 0.072

Q) What is its Ke for UniProt P33534? Entry: CN(C(=O)/C=C/c1ccoc1)[C@@H]1CC[C@H]2[C@H]3Cc4ccc(O)c5c4[C@@]2(CCN3CC2CC2)[C@H]1O5
A) 0.07

Continuing:
Q) What is its Ke for UniProt P33534? Entry: CN(C(=O)Cc1ccc(Cl)c(Cl)c1)[C@@H]1CC[C@@]2(O)[C@H]3Cc4ccc(O)c5c4[C@@]2(CCN3CC2CC2)[C@H]1O5
A) 1.37

Q) What is its Ke for UniProt P33534? Entry: CCCCCCN[C@@H]1CC[C@@]2(O)[C@H]3Cc4ccc(O)c5c4[C@@]2(CCN3CC2CC2)[C@H]1O5
A) 0.3
